Below, each entry is listed alongside its reported viability of PBM cells relative to control.
System: PBM cells
Assay: Cell viability resazurin assay, PBM cells
Type: cell-based, human
Conditions: 2 h incubation, 2.5 µM, ± SD
Give just the numeric value; % need not be written.

Check out these entries, answers already filled in.
Kindly note the recorded viability of PBM cells relative to control for O=C1C=CC(=O)[N-]1.[C-]#[O+].[Fe+2].c1cc[cH-]c1.c1coc(P(c2ccco2)c2ccco2)c1 [2b, CpFe(CO)(P(Fu)3)(η^1-N-maleimidato)] , which is 96.06

Kindly note the recorded viability of PBM cells relative to control for O=C1C=CC(=O)[N-]1.[C-]#[O+].[C-]#[O+].[Fe+2].c1cc[cH-]c1 [compound 1, CpFe(CO)2(η^1-N-maleimidato)] , which is 99.56

Kindly note the recorded viability of PBM cells relative to control for O=C1C=CC(=O)[N-]1.[C-]#[O+].[Fe+2].c1cc[cH-]c1.c1ccc(P(c2ccccc2)c2ccccc2)cc1 [2a, CpFe(CO)(PPh3)(η^1-N-maleimidato)] , which is 98.07

Continuing:
Kindly note the recorded viability of PBM cells relative to control for CCOP(OCC)OCC.O=C1C=CC(=O)[N-]1.[C-]#[O+].[Fe+2].c1cc[cH-]c1 [3a] , which is 83.52

Kindly note the recorded viability of PBM cells relative to control for O=C1C=CC(=O)[N-]1.[C-]#[O+].[Fe+2].c1cc[cH-]c1.c1ccc(OP(Oc2ccccc2)Oc2ccccc2)cc1 [3b, CpFe(CO)(P(OPh)3)(η^1-N-maleimidato)] , which is 97.35

* * *

Tested on: PBM cells
Test: Cell viability resazurin assay, PBM cells
Type: cell-based, human
Conditions: 24 h incubation, 50 µM, ± SD
PROPERTY MEASURED: viability of PBM cells relative to control
Form entry: enter the amount, then its unit.

Kindly note the recorded viability of PBM cells relative to control for CCOP(OCC)OCC.O=C1C=CC(=O)[N-]1.[C-]#[O+].[Fe+2].c1cc[cH-]c1 [3a] , which is 98.58 ± 2.84%

Kindly note the recorded viability of PBM cells relative to control for O=C1C=CC(=O)[N-]1.[C-]#[O+].[Fe+2].c1cc[cH-]c1.c1ccc(P(c2ccccc2)c2ccccc2)cc1 [2a, CpFe(CO)(PPh3)(η^1-N-maleimidato)] , which is 55.37 ± 0.71%

Kindly note the recorded viability of PBM cells relative to control for O=C1C=CC(=O)[N-]1.[C-]#[O+].[C-]#[O+].[Fe+2].c1cc[cH-]c1 [compound 1, CpFe(CO)2(η^1-N-maleimidato)] , which is 78.87 ± 1.76%

Kindly note the recorded viability of PBM cells relative to control for O=C1C=CC(=O)[N-]1.[C-]#[O+].[Fe+2].c1cc[cH-]c1.c1ccc(OP(Oc2ccccc2)Oc2ccccc2)cc1 [3b, CpFe(CO)(P(OPh)3)(η^1-N-maleimidato)] , which is 28.33 ± 2.17%

Then there is this molecule:
Kindly note the recorded viability of PBM cells relative to control for O=C1C=CC(=O)[N-]1.[C-]#[O+].[Fe+2].c1cc[cH-]c1.c1coc(P(c2ccco2)c2ccco2)c1 [2b, CpFe(CO)(P(Fu)3)(η^1-N-maleimidato)] , which is 85.34 ± 2.58%

* * *

System: HL-60 cells
Experiment: Cell viability resazurin assay, HL-60 cells
Assay type: cell-based, human
Conditions: 2 h incubation, 10 µM, ± SD
Below, each entry is listed alongside its reported viability of HL-60 cells relative to control.
Give just the numeric value; % need not be written.

Kindly note the recorded viability of HL-60 cells relative to control for `CCOP(OCC)OCC.O=C1C=CC(=O)[N-]1.[C-]#[O+].[Fe+2].c1cc[cH-]c1` , which is 101.73

Kindly note the recorded viability of HL-60 cells relative to control for `O=C1C=CC(=O)[N-]1.[C-]#[O+].[C-]#[O+].[Fe+2].c1cc[cH-]c1` , which is 89.74

Kindly note the recorded viability of HL-60 cells relative to control for `O=C1C=CC(=O)[N-]1.[C-]#[O+].[Fe+2].c1cc[cH-]c1.c1ccc(OP(Oc2ccccc2)Oc2ccccc2)cc1` , which is 125.67

Continuing:
Kindly note the recorded viability of HL-60 cells relative to control for `O=C1C=CC(=O)[N-]1.[C-]#[O+].[Fe+2].c1cc[cH-]c1.c1coc(P(c2ccco2)c2ccco2)c1` , which is 104.03

Kindly note the recorded viability of HL-60 cells relative to control for `O=C1C=CC(=O)[N-]1.[C-]#[O+].[Fe+2].c1cc[cH-]c1.c1ccc(P(c2ccccc2)c2ccccc2)cc1` , which is 115.82

* * *

Below, each entry is listed alongside its reported viability of HL-60 cells relative to control.
Tested on: HL-60 cells
Assay: Cell viability resazurin assay, HL-60 cells
Assay type: cell-based, human
Details: 24 h incubation, 2.5 µM, ± SD
Give just the numeric value; % need not be written.

Check out these entries, answers already filled in.
Kindly note the recorded viability of HL-60 cells relative to control for `O=C1C=CC(=O)[N-]1.[C-]#[O+].[Fe+2].c1cc[cH-]c1.c1coc(P(c2ccco2)c2ccco2)c1` , which is 97.63

Kindly note the recorded viability of HL-60 cells relative to control for `O=C1C=CC(=O)[N-]1.[C-]#[O+].[Fe+2].c1cc[cH-]c1.c1ccc(OP(Oc2ccccc2)Oc2ccccc2)cc1` , which is 91.42

Kindly note the recorded viability of HL-60 cells relative to control for `O=C1C=CC(=O)[N-]1.[C-]#[O+].[Fe+2].c1cc[cH-]c1.c1ccc(P(c2ccccc2)c2ccccc2)cc1` , which is 100.69

Kindly note the recorded viability of HL-60 cells relative to control for `CCOP(OCC)OCC.O=C1C=CC(=O)[N-]1.[C-]#[O+].[Fe+2].c1cc[cH-]c1` , which is 112.36

Then there is this compound:
Kindly note the recorded viability of HL-60 cells relative to control for `O=C1C=CC(=O)[N-]1.[C-]#[O+].[C-]#[O+].[Fe+2].c1cc[cH-]c1` , which is 109.43

* * *

Tested on: A549 cells
Experiment: Cell viability resazurin assay, A549 cells
Assay type: cell-based, human
Details: 2 h incubation, 5 µM, ± SD
Below, each entry is listed alongside its reported viability of A549 cells relative to control.

I looked up `CCOP(OCC)OCC.O=C1C=CC(=O)[N-]1.[C-]#[O+].[Fe+2].c1cc[cH-]c1` and its viability of A549 cells relative to control for A549 cells was 85.49 ± 7.39%

I looked up `O=C1C=CC(=O)[N-]1.[C-]#[O+].[Fe+2].c1cc[cH-]c1.c1ccc(P(c2ccccc2)c2ccccc2)cc1` and its viability of A549 cells relative to control for A549 cells was 63.83 ± 8.57%

I looked up `O=C1C=CC(=O)[N-]1.[C-]#[O+].[C-]#[O+].[Fe+2].c1cc[cH-]c1` and its viability of A549 cells relative to control for A549 cells was 67.97±12.88%

Continuing:
I looked up `O=C1C=CC(=O)[N-]1.[C-]#[O+].[Fe+2].c1cc[cH-]c1.c1ccc(OP(Oc2ccccc2)Oc2ccccc2)cc1` and its viability of A549 cells relative to control for A549 cells was 90.46 ± 7.14%

I looked up `O=C1C=CC(=O)[N-]1.[C-]#[O+].[Fe+2].c1cc[cH-]c1.c1coc(P(c2ccco2)c2ccco2)c1` and its viability of A549 cells relative to control for A549 cells was 83.32 ± 11.51%

* * *

Test system: PBM cells
Assay: Cell viability resazurin assay, PBM cells
Format: cell-based, human
Settings: 24 h incubation, 5 µM, ± SD
PROPERTY MEASURED: viability of PBM cells relative to control (%)
Give just the numeric value; % need not be written.

Check out these entries, answers already filled in.
Kindly note the recorded viability of PBM cells relative to control for `O=C1C=CC(=O)[N-]1.[C-]#[O+].[C-]#[O+].[Fe+2].c1cc[cH-]c1` , which is 91.84

Kindly note the recorded viability of PBM cells relative to control for `O=C1C=CC(=O)[N-]1.[C-]#[O+].[Fe+2].c1cc[cH-]c1.c1coc(P(c2ccco2)c2ccco2)c1` , which is 94.2

Kindly note the recorded viability of PBM cells relative to control for `O=C1C=CC(=O)[N-]1.[C-]#[O+].[Fe+2].c1cc[cH-]c1.c1ccc(OP(Oc2ccccc2)Oc2ccccc2)cc1` , which is 52.91

Kindly note the recorded viability of PBM cells relative to control for `CCOP(OCC)OCC.O=C1C=CC(=O)[N-]1.[C-]#[O+].[Fe+2].c1cc[cH-]c1` , which is 102.43

Then there is this molecule:
Kindly note the recorded viability of PBM cells relative to control for `O=C1C=CC(=O)[N-]1.[C-]#[O+].[Fe+2].c1cc[cH-]c1.c1ccc(P(c2ccccc2)c2ccccc2)cc1` , which is 102.32
